test_protocol: Peptide degradation by human plasma (HPLC / mass spectrum)
Assay type: in vitro ADME
stated_conditions: human plasma, 37° C.
Method: Peptides have variable half lives in the plasma due to the proteolytic activity and the renal filtration, which are relevant aspects in the pharmacokinetics of drug candidates. To analyze the peptide in HPLC and Mass Spectrum, an aliquot of 200 μL was transferred to a new Eppendorf tube and proteins were precipitated with 20 μL trifluoroacetic acid for 5 minutes at 4° C. After centrifugation for 10 minutes at 14,000 rpm, the supernatant was analyzed in an LC/ESI-MS (Waters). […]
No end group written: not given here.
outcome_measure: half-life

Req: Name the recorded half-life for AIYPGNGDTSYKQKFRG-NH2 [RB8, AIYPGNGDTSYKQKFRG-NH2] .
Resp: < 1 h

====

test_protocol: Peptide degradation by human plasma (HPLC / mass spectrum)
Type: in vitro ADME
stated_conditions: human, human plasma; after 2 hours of incubation at 37° C.; read-out: peptide cleaved / degraded in human plasma
outcome_measure: metabolised at 2 h, 1.67 mg/mL

Req: Name the recorded metabolised at 2 h, 1.67 mg/mL for C[C@@H]1NC(=O)[C@H](CCCNC(=N)N)NC(=O)[C@H](C)NC(=O)[C@H]([C@@H](C)O)NC(=O)[C@H](CCC(=O)O)NC(=O)CNC(=O)[C@H](CCCNC(=N)N)NC(=O)[C@H](C)NC(=O)[C@@H](N)CSSC[C@@H](C(N)=O)NC(=O)CNC(=O)[C@H](CCC(N)=O)NC(=O)CNC(=O)[C@H](Cc2c[nH]c3ccccc23)NC(=O)[C@H](Cc2ccc(O)cc2)NC(=O)[C@H](C)NC(=O)[C@H](Cc2ccccc2)NC(=O)[C@H]([C@@H](C)O)NC1=O [RB9, CARGETARATFAYWGQGC-NH2] .
Resp: ~50%
